These entries and their values trace back to PubChem BioAssay (NCI).

# Tested on: RPMI-8226 leukemia
# Method summary: NCI-60 one-dose screen, 48 h (100 = growth as untreated, 0 = no growth, -100 = all killed)
# Protocol conditions: 10 µM unless noted
About 83,000 compounds went through this panel and 20% of them were active in at least one assay; those are over-represented in the sample as a whole.
Binary call on growth: rule met from 50% upward, rule not met beneath that.

Data request: # bool: growth of C=C1CC[C@@H]2[C@]3(C)COC(c4cn[nH]c4-c4ccc(Br)cc4)O[C@@H]3CC[C@@]2(C)[C@@H]1C/C=C1/C(=O)OCC1O (some centres not stated) >= 50%
Data returned: rule not met

Data request: # bool: growth of COC(=O)/C=C/c1cccc2c1C(=O)NC(C)(c1cc3ccccc3oc1=O)N2 (configuration not stated) >= 50%
Data returned: rule met

Data request: # bool: growth of "Cc1cc(=O)oc2cc(OCCCOc3ccc(/C=C/C(=O)Nc4ccccc4N)cc3)ccc12" >= 50%
Data returned: rule not met

Data request: # bool: growth of CCOC(=O)C1=C(N)N(c2ccccc2)C2=C(C(=O)CC(C)(C)C2)C1c1ccc([N+](=O)[O-])cc1 (configuration not stated) >= 50%
Data returned: rule met

Data request: # bool: growth of C#CCOc1cc(N(CC)CC)ccc1C(C(=O)NC(C)(C)C)N(C(=O)C1CCc2cc(F)ccc2O1)c1ccccc1Br (configuration not stated) >= 50%
Data returned: rule not met

Data request: # bool: growth of "O=C(COc1ccc(NC(=O)Nc2ccc(Cl)c(Cl)c2)cc1)N=Nc1c(O)[nH]c2ccc(Cl)cc12" >= 50%
Data returned: rule not met

Data request: # bool: growth of "CN1C(=O)/C(=C/c2ccc(C(=O)Nc3ncc(Cc4ccc(Cl)cc4Cl)s3)cc2)SC1=S" >= 50%
Data returned: rule not met

Data request: # bool: growth of "N#Cc1c(-c2cccc(O)c2O)cc(-c2ccc3ccccc3c2)[nH]c1=O" >= 50%
Data returned: rule met

Data request: # bool: growth of C#CCOc1cc(N(CC)CC)ccc1C(C(=O)NC(C)(C)C)N(C(=O)C1CCc2cc(F)ccc2O1)c1ccc(F)c(Cl)c1 (configuration not stated) >= 50%
Data returned: rule not met

Data request: # bool: growth of "COc1ccc(C(=O)/C=C/c2ccc(Oc3nc(Nc4ccc(F)cc4)nc(N(C)C)n3)c(OC)c2)cc1" >= 50%
Data returned: rule not met

Data request: # bool: growth of COc1cc2c(c(OC)c1OC)C(=O)CC(c1cccc(NC(=O)[C@@H](N)CC(C)C)c1)O2 (some centres not stated) >= 50%
Data returned: rule met

----------
# Test system: CCRF-CEM leukemia
# Method summary: NCI-60 one-dose screen, 48 h (100 = growth as untreated, 0 = no growth, -100 = all killed)
# Protocol conditions: 10 µM unless noted
The panel holds about 83,000 compounds, 20% with a hit somewhere; the sample as a whole holds those more often.
Attribute measured: growth (%)
State just the number; it will be interpreted in %.

Data request: Look up growth: "NS(=O)(=O)c1ccc(N=Nc2c(O)n(CC(=O)Nc3ccccc3Cl)c3ccccc23)cc1"
Data returned: 50.5

Data request: Look up growth: CC12CC[C@@H]3[C@]4(C)COC(c5c(F)cccc5F)O[C@@H]4CC[C@@]3(C)[C@@H]1CC(C1=CCOC1=O)O2 (some centres undefined)
Data returned: 74.8

Data request: Look up growth: "C/C(=N\N=C1/C(=O)Nc2ccc(Cl)cc21)c1ccc2c(c1)Nc1ccccc1S2"
Data returned: 9.58

Data request: Look up growth: "O=C(Cn1c(/C=C/c2ccccc2)nc2ccccc2c1=O)Nc1ccccc1"
Data returned: 71.4

Data request: Look up growth: "COc1ccc2c(c1)c(-c1cc(N)n3nc(-c4cn(C)c5ccccc45)cc3n1)cn2C"
Data returned: -24.3

Data request: Look up growth: COc1ccc(N2N=C(c3ccc4c(c3)OCO4)CC2c2cccc(NC(=O)CCNS(=O)(=O)c3ccc(Cl)cc3)c2)cc1 (centres undefined)
Data returned: 18.7

Data request: Look up growth: CCN1C(=O)N(CC)C2NNC(Sc3c(C(=O)O)c4ccccc4n(C4CCCC4)c3=O)=NC21 (centres undefined)
Data returned: 24.8

Data request: Look up growth: "O=C(O)Cn1c(O)c(/C=C2/C=c3cc4c(cc3=NC2=O)OCCO4)sc1=S"
Data returned: 97.3

Data request: Look up growth: COc1c(F)ccc(C(=O)Nc2ccc3nc(NC(=O)C4CCCN(S(=O)(=O)c5ccc(C(F)(F)F)cc5)C4)sc3c2)c1F (centres undefined)
Data returned: 89.5
